Target: SIRT1 (Homo sapiens)
Assay: Mass spectrometry based SIRT1 deacetylase activation assay (acetylated p53-derived peptide substrate)
Assay type: biochemical
Details: 0.5 μM peptide substrate, 120 μM βNAD+, 10 nM SIRT1, 25 minutes at 25° C.
Excerpt: A mass spectrometry based assay was used to identify modulators of SIRT1 activity. The mass spectrometry based assay utilizes a peptide having 20 amino acid residues as follows: Ac-EE-K(biotin)-GQSTSSHSK(Ac)NleSTEG-K(5TMR)-EE-NH2 (SEQ ID NO: 1) wherein K(Ac) is an acetylated lysine residue and Nle is a norleucine. The peptide is labeled with the fluorophore 5TMR (excitation 540 nm/emission 580 nm) at the C-terminus. The sequence of the peptide substrate is based on p53 with several modifications. […]
value.type: EC1.5

# record.smiles, target, value.type, result.value
data = [
    ("O=C(Nc1ccc(CN2CCCC2)cc1)c1cccc2[nH]c(-c3ccc(CN4CCCC4)cc3C(F)(F)F)nc12", "SIRT1 (Homo sapiens)", "EC1.5", "A (EC1.5<1.0 uM)"),
    ("O=C(Nc1cccnc1)c1cncc2[nH]c(-c3ccc(N4CCOCC4)cc3C(F)F)nc12", "SIRT1 (Homo sapiens)", "EC1.5", "A (EC1.5<1.0 uM)"),
]

###

Molecular target: UniProt:Q96EB6
Test: Mass spectrometry based SIRT1 deacetylase activation assay (acetylated p53-derived peptide substrate)
Assay type: biochemical
Settings: 0.5 μM peptide substrate, 120 μM βNAD+, 10 nM SIRT1, 25 minutes at 25° C.
value.type: EC1.5

Here are 8 compounds together with their reported answers.
# compound, target, EC1.5
records = [
    ("O=C(Nc1ccc(OC[C@H](O)CO)cc1)c1cccc2[nH]c(-c3cccc(N4CCOCC4)c3)nc12 [Compound 777]", "UniProt:Q96EB6", "A (EC1.5<1.0 uM)"),
    ("O=C(Nc1cccnc1)c1cncc2nc(-c3ccc(N4CCCC4)cc3C(F)F)[nH]c12 [Compound 812]", "UniProt:Q96EB6", "A (EC1.5<1.0 uM)"),
    ("Cc1cnc(NC(=O)c2cncc3[nH]c(-c4ccc(Cl)cc4C(F)(F)F)nc23)s1 [Compound 652]", "UniProt:Q96EB6", "A (EC1.5<1.0 uM)"),
    ("O=C(Nc1nccs1)c1cncc2[nH]c(-c3ccc(OC[C@@H](O)CO)cc3C(F)(F)F)nc12 [Compound 758]", "UniProt:Q96EB6", "A (EC1.5<1.0 uM)"),
    ("Cc1cnc(NC(=O)c2cncc3[nH]c(-c4ccc(F)cc4C(F)(F)F)nc23)s1 [Compound 697]", "UniProt:Q96EB6", "A (EC1.5<1.0 uM)"),
    ("Cc1nc(C)c(-c2nc3c(C(=O)Nc4ccc(OC[C@@H](O)CO)cc4)cccc3[nH]2)s1 [Compound 789]", "UniProt:Q96EB6", "A (EC1.5<1.0 uM)"),
    ("CS(=O)(=O)c1ccc(F)cc1-c1nc2c(C(=O)Nc3nccs3)cccc2[nH]1 [Compound 600]", "UniProt:Q96EB6", "B (EC1.5 1-25 uM)"),
    ("O=C(Nc1nccs1)c1cc(F)cc2nc(-c3ccc(F)cc3C(F)F)[nH]c12 [Compound 824]", "UniProt:Q96EB6", "A (EC1.5<1.0 uM)"),
]

Inquiry: Report EC1.5 for O=C(Nc1cccc(N2CCOCC2)n1)c1cccc2[nH]c(-c3ccc(Cl)cc3C(F)(F)F)nc12 [Compound 868] tested on UniProt:Q96EB6.
Reply text: A (EC1.5<1.0 uM)

Inquiry: Report EC1.5 for O=C(Nc1cccc(CN2CCOCC2)n1)c1cccc2[nH]c(-c3ccc(Cl)cc3C(F)F)nc12 [Compound 819] tested on UniProt:Q96EB6.
Reply text: A (EC1.5<1.0 uM)

Inquiry: Report EC1.5 for COc1cc(C(=O)Nc2nccs2)c2nc(-c3ccccc3C(F)(F)F)[nH]c2c1 [Compound 634] tested on UniProt:Q96EB6.
Reply text: A (EC1.5<1.0 uM)

###

Biological target: SIRT1 (Homo sapiens, UniProt Q96EB6)
Sequence (Q96EB6 1-747): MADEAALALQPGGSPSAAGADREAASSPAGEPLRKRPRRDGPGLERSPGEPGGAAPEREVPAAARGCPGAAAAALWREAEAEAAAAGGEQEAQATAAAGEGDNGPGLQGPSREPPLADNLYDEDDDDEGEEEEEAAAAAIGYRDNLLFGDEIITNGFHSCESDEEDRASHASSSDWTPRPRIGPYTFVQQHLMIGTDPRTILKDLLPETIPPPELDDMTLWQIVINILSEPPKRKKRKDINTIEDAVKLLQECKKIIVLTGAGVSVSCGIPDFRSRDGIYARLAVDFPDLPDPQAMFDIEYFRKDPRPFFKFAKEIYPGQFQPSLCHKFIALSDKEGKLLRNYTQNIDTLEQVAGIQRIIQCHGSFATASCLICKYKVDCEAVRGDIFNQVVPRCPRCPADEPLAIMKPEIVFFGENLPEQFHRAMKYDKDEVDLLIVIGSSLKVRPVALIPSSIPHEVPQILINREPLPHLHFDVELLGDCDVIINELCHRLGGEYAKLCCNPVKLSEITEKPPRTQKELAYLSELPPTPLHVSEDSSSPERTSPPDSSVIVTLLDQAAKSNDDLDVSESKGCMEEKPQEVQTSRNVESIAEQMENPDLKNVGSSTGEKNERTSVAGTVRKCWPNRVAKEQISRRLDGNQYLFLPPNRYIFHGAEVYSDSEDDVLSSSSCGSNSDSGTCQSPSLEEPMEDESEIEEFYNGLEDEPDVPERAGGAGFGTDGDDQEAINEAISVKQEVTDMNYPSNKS
Assay: Mass spectrometry based SIRT1 deacetylase activation assay (acetylated p53-derived peptide substrate)
Type: biochemical
value.type: EC1.5

# record.smiles, target, EC1.5
records = [
    ("Cc1ncsc1-c1nc2c(C(=O)Nc3nccs3)cccc2[nH]1", "SIRT1 (Homo sapiens, UniProt Q96EB6)", "B (EC1.5 1-25 uM)"),
    ("O=C(NC1CCOCC1)c1cccc2[nH]c(-c3cccc(C(F)(F)F)c3)nc12", "SIRT1 (Homo sapiens, UniProt Q96EB6)", "B (EC1.5 1-25 uM)"),
    ("O=C(NC1CCNCC1)c1cccc2[nH]c(-c3cccc(C(F)(F)F)c3)nc12", "SIRT1 (Homo sapiens, UniProt Q96EB6)", "B (EC1.5 1-25 uM)"),
    ("O=C(Nc1nccs1)c1cccc2[nH]c(-c3cccc(N4CCCC4)c3)nc12", "SIRT1 (Homo sapiens, UniProt Q96EB6)", "B (EC1.5 1-25 uM)"),
]

Inquiry: What does the record list as EC1.5 for "O=C(Nc1nccs1)c1cccc2[nH]c(-c3ccccn3)nc12" ?
Reply text: B (EC1.5 1-25 uM)

Inquiry: What does the record list as EC1.5 for "O=C(Nc1nccs1)c1cccc2[nH]c(-c3ccoc3)nc12" ?
Reply text: B (EC1.5 1-25 uM)

Inquiry: What does the record list as EC1.5 for "O=C(Nc1cccc2[nH]c(-c3ccccc3C(F)(F)F)nc12)c1cscn1" ?
Reply text: B (EC1.5 1-25 uM)

Inquiry: What does the record list as EC1.5 for "Cc1cc(NC(=O)c2cccc3[nH]c(-c4cccc(C(F)(F)F)c4)nc23)no1" ?
Reply text: B (EC1.5 1-25 uM)

###

Molecular target: UniProt:Q96EB6
Assay: Mass spectrometry based SIRT1 deacetylase activation assay (acetylated p53-derived peptide substrate)
Assay type: biochemical
Conditions: 0.5 μM peptide substrate, 120 μM βNAD+, 10 nM SIRT1, 25 min at 25° C., read-out: EC1.5
value.type: EC1.5

# compound, target, EC1.5
records = [
    ("CS(=O)(=O)c1ccc(-c2nc3c(C(=O)Nc4ccccn4)cccc3[nH]2)cc1 [Compound 406]", "UniProt:Q96EB6", "1000 to 25000 nM"),
    ("O=C(Nc1ccc(CN2CCCC2)cn1)c1cccc2[nH]c(-c3ccc(Cl)cc3C(F)(F)F)nc12 [Compound 542]", "UniProt:Q96EB6", "< 1000 nM"),
    ("O=C(Nc1nccs1)c1cccc2[nH]c(-c3ccc(OC[C@@H](O)CO)cc3C(F)F)nc12 [Compound 594]", "UniProt:Q96EB6", "< 1000 nM"),
    ("O=C(Nc1ccccn1)c1cccc2[nH]c(-c3ccc(N4CCOCC4)cc3C(F)(F)F)nc12 [Compound 415]", "UniProt:Q96EB6", "< 1000 nM"),
    ("O=C(Nc1ccc(CN2CCCC2)cc1)c1cccc2[nH]c(-c3ccc(Cl)cc3C(F)(F)F)nc12 [Compound 491]", "UniProt:Q96EB6", "< 1000 nM"),
    ("Cc1cnc(NC(=O)c2cccc3[nH]c(-c4ccc(Cl)cc4C(F)F)nc23)s1 [Compound 563]", "UniProt:Q96EB6", "< 1000 nM"),
    ("CC(C)(C)c1ccc(OCCN2CCOCC2)c(-c2nc3c(C(=O)Nc4nccs4)cccc3[nH]2)c1 [Compound 547]", "UniProt:Q96EB6", "1000 to 25000 nM"),
    ("O=C(Nc1nccs1)c1cccc2[nH]c(-c3cc(F)cc(Cl)c3OCCN3CCOCC3)nc12 [Compound 543]", "UniProt:Q96EB6", "1000 to 25000 nM"),
]

Inquiry: What does the record list as EC1.5 for O=C(Nc1cccnn1)c1cccc2[nH]c(-c3ccnn3-c3ccccc3)nc12 [Compound 467] ?
Reply text: 1000 to 25000 nM

Inquiry: What does the record list as EC1.5 for CN1CCN(c2cccc(-c3nc4c(C(=O)Nc5ccccn5)cccc4[nH]3)c2)CC1 [Compound 528] ?
Reply text: < 1000 nM

Inquiry: What does the record list as EC1.5 for O=C(Nc1nccs1)c1cccc2[nH]c(-c3ccc(F)cc3OCCN3CCOCC3)nc12 [Compound 503] ?
Reply text: 1000 to 25000 nM

Inquiry: What does the record list as EC1.5 for O=C(Nc1cccc2[nH]c(-c3ccc(Cl)cc3C(F)(F)F)nc12)c1cscn1 [Compound 416] ?
Reply text: 1000 to 25000 nM

Inquiry: What does the record list as EC1.5 for CN1CCOc2cc(-c3nc4c(C(=O)Nc5cnccn5)cccc4[nH]3)cnc21 [Compound 473] ?
Reply text: 1000 to 25000 nM

Inquiry: What does the record list as EC1.5 for O=C(Nc1cccnn1)c1cccc2[nH]c(-c3ccccc3C(F)(F)F)nc12 [Compound 451] ?
Reply text: < 1000 nM

Inquiry: What does the record list as EC1.5 for O=C(Nc1cnccn1)c1cccc2[nH]c(-c3ccccc3OCCN3CCOCC3)nc12 [Compound 489] ?
Reply text: 1000 to 25000 nM

Inquiry: What does the record list as EC1.5 for Cc1cnc(NC(=O)c2cccc3[nH]c(-c4ccc(OC[C@@H](O)CO)cc4C(F)F)nc23)s1 [Compound 595] ?
Reply text: < 1000 nM
